Tested on: MS2 coat protein
Assay: apparent KD of MS2 coat protein; designed switch direction (-1 OFF switch, 1 ON switch): -1; higher = weaker reporter binding
Conditions: input ligand: none
Would you please tag the item condition met when its apparent KD of MS2 coat protein is 200 nM or above, and condition not met when it is below?

These recorded examples may help you get a feel for the data.
- RESIDUE_SEQUENCE: "CCCAGAUAGGAAGGAUAUUGUACAUGAGGAUCACCCAUGUAAUAAAUGAGGAUCACGGAUGUAGACAAGAAGGUCCGGAUAAGC [Ostracism 6 - Jieux - Exclusion NG 2] (Eterna round: R96, puzzle: Exclusion NG 2)"
  GROUP_LABEL: "condition not met"
- RESIDUE_SEQUENCE: "CAUGUUUGUCGUUGAUCCAACAUGAGGAUCACCCAUGUCUCUUUAGCUUUUUGCUCGUCUUAUCCUCCUUUGUUCAC [JR_STOV1_v2_Sub0101] (Eterna round: R97, puzzle: Sensor, turn-off variant 1)"
  GROUP_LABEL: "condition met"
- RESIDUE_SEQUENCE: "AAACGGCAGGGAGGAUAUGCUUGCCUGGGUCGUCUUCAGACAUGAGGAUCACCCAUGUAGUCGACGCAGAAGGCCCUCAAAGCC [JL ViennaUCT Ontiis mod 5] (Eterna round: R96, puzzle: Exclusion NG 2)"
  GROUP_LABEL: "condition not met"
- RESIDUE_SEQUENCE: "UUUUGGCAUGUAGGAUAUGGGUCCGAUUAGGAUUUAGAAGGACAUGAGGAUCACCCAUGUGCAUUUAAUUGGUCUUUACUUUUU [EXclNG1-LROPPY13] (Eterna round: R96, puzzle: Exclusion NG 1)"
  GROUP_LABEL: "condition not met"
- RESIDUE_SEQUENCE: "UGUUGUUCAGGAUAUGAUGUAUUAUACAUGAGGAUCACCCAUGUGGGUCCUGAUUUGGCGUCAGAAGGGAAUGUUG [salish99_ex5_r4_110] (Eterna round: R97, puzzle: Exclusion 5)"
  GROUP_LABEL: "condition not met"

Prompt: Check this sequence for apparent KD of MS2 coat protein at or above 200 nM: AAAUUGUCAGGAUAUUGUUAGUUUAGUUGUUUGUAUUAGUUCGAGAAGGGACAUGAGGAUCACCCAUGUGAAAA [Ex4 #69] (Eterna round: R97, puzzle: Exclusion 4)
Completion: condition not met

Prompt: Decide: apparent KD of MS2 coat protein of AGUGCUGCAGGAUAUUCUAUUAAUUACAUGAGGAUCACCCAUGUGAAUGGACAAGGGUGUGAAGAAGGGUGGUGCG [Omei Ex5 A17h] (Eterna round: R97, puzzle: Exclusion 5) >= 200 nM?
Completion: condition met

Prompt: Dear colleague, could you confirm whether UUGAUGUGAGGAUAUAUAUGGUGGUUUUUUUAUUUUUUAUUACUUGAGGAUCACCCAAGUAGAAGGCGCUACGU [JR_Ex2_Sub069] (Eterna round: R97, puzzle: Exclusion 2) has apparent KD of MS2 coat protein at or above 200 nM?
Completion: condition not met

Prompt: Test whether the sequence CUUUUGUGAGGAUAUUAGUAGUAAAUAAAUUAAAUUACUACUGAGAAGGCACAUGAGGAUCACCCAUGUUCCUC [salish99_ex4_r3_057] (Eterna round: R96, puzzle: Exclusion 4) records apparent KD of MS2 coat protein of 200 nM or higher.
Completion: condition not met
